Assay: chemical genetic growth profiling, strain panel (AID 1159580);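 further: tested at 20 µM; growth read once vehicle control cultures reached saturation at 30 °C; 1 = growth at the plate median or of vehicle wells; lower values mean less growth of the strain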
Conditions: S. cerevisiae deletion strains, growth OD, locus YLR418C, strain cdc73, stronger effect = lower value
About 2,000 (36%) of roughly 5,500 compounds were called active. Inconclusive results (about 18%) are left out. This is one part of the list.
outcomeMeasure: normalized growth
Format: numeric value only, no unit, no commentary.

Bench note: what normalized growth did O=C(Cn1ccnc1[N+](=O)[O-])NCCO show?
0.95

So what does the record say about normalized growth for Cc1cccc(C)c1NC1=NCCCS1 ?
0.986

Recorded normalized growth of CC[C@H](C)C(=O)O[C@H]1CCC=C2C=C[C@H](C)C(CCC3C[C@@H](O)CC(=O)O3)[C@H]21 (stereo not given in full) , please.
1

Give the measured normalized growth of C=C1C(C)C2C(Cc3ccccc3)NC(=O)C23OC(=O)/C=C/C(=O)CCCC(C)C/C=C/C3C1O (stereo not given) .
0.94

Request the reported normalized growth associated with O=C(C1CCCCC1)N1CC(=O)N2CCc3ccccc3C2C1 (stereo not given)
1.01

Suppose we examine the molecule CC(C)NNC(=O)c1ccncc1 ; what normalized growth value has been reported?
1.04

What value of normalized growth has been recorded for this entry: O=C1OC(c2ccc(O)cc2)(c2ccc(O)cc2)c2ccccc21
0.835

Quick check: normalized growth of NS(=O)(=O)c1cc2c(cc1Cl)NC(C(Cl)Cl)NS2(=O)=O (stereo not given) ?
1.05

Could you tell me which normalized growth is on file for NC[C@@H]1CC[C@@H](N)[C@@H](O[C@H]2[C@H](O)[C@@H](O[C@H]3O[C@H](CO)[C@@H](O)[C@H](N)[C@H]3O)[C@H](N)C[C@@H]2N)O1 ?
0.968

Bench note: what normalized growth did Clc1cccc(Cl)c1NC1=NCCN1 show?
1.05
